Values from PubChem BioAssay (NCI)

# Test system: NCI-H460 lung
# protocol-notes: NCI-60 one-dose screen, 48 h
# measurement-parameters: 10 µM unless noted
# Experimental: Growth inhibition of the NCI-H460 human Non-Small Cell Lung tumor cell line is measured as a screen for anti-cancer activity. Cells are grown in 96 well plates and exposed to the test compound for 48 hours. Compounds are tested at a single concentration, which is 10^-5 M for most compounds. The reported endpoint is percent growth (GI% or GIPRCNT), where numbers from 0 - 100% represent growth inhibition, and numbers from -100% - 0 represent cell death. […]
The panel holds about 83,000 compounds, 20% with a hit somewhere; the sample as a whole holds those more often. The source made the active and inactive calls. How the source made its calls: active means growth percent below 10; inactive means the rest.
Pick from y = active, n = inactive when you respond.

// below: answered compounds
> print(dat)
                                   compound  group.label
1                CC(=O)Nc1nc(C)c(C(=O)NN)s1            n
2       NC(N)=Nc1ccc(/C=C2\C=Cc3ccccc32)cc1            n
3  CCCCn1c(Cc2ccc(OC)cc2)nc2cc(OC)c(OC)cc2c1=O            n
4   COc1cc(C(=O)Nc2ccc(N(C)C)cc2)cc(OC)c1OC            n
5  COC(=O)c1ccc2[nH]c(O)c(C(=Nc3ccc(N(C)C(=O)CN4CCN(C)CC4)cc3)c3ccc([N+](=O)[O-])cc3)c2c1            n

For CCCCCCCCCCCCCCCCCCOP(=O)(O)O , what call appears in the results of this test?
n

In this assay, the call recorded for COc1ccccc1Cn1cc2c(c1)-c1oncc1CC2 was what?
y

====

# Tested on: SF-268 CNS
# protocol-notes: NCI-60 one-dose screen, 48 h (100 = growth as untreated, 0 = no growth, -100 = all killed)
# measurement-parameters: 10 µM unless noted
This is part of a sample that, as a whole, favours compounds with a hit. Of some 83,000 tested, about 20% had one in any assay.
experimental-readout: growth (%)
Hi! Could you send only the number? It should be in %, unit omitted.

> print(dat)
                                   molecule  experimental.readout  measured.result
1  O=C(Nc1ccc(-n2cc(-c3ccncc3)c(-c3ccc(Cl)c(O)c3)n2)cc1)Nc1ccc(Cl)c(C(F)(F)F)c1                growth             23.3
2  C/C=C/C/C=C/[C@H](C)C[C@H](O)[C@@H]1C[C@@H]2O[C@H]2/C=C/[C@@H]2OC(C)(C)O[C@H]2/C=C/C[C@H](C)CC(=O)O1                growth             46.9
3  COc1cc(CNC(=O)CCCC/C=C/C(C)C)ccc1OCc1nnc(Nc2ccccc2F)o1                growth             45.5
4                   CCOC(=O)NC1=NCC(C)(C)S1                growth             97.8
5  COc1ccc(NC(=O)/C=C(C)/C=C/C=C(C)/C=C/C2=C(C)CCCC2(C)C)cc1                growth             81.4
6  NC(CSC(c1ccccc1)(c1ccccc1)c1ccccc1)C(=O)NCC(=O)O (stereo not given)                growth             67.3

Please report the recorded growth for O=C1C(=O)c2ccccc2C(O)=C1CCCc1ccc(C2CCCC2)cc1 .
47.6

So what's the measured growth for this one? CCCCCCCCc1ccc(CCC(N)(CO)CO)cc1
20.3

Requested read-out: growth. Entry: CC(O)CN(CCO)CCN(CCO)CC(C)O (stereo not given)
107

State the recorded growth for this entry: COc1nc(OC)nc(-c2cc(C(=O)c3ccc(Br)cc3)n3cc(C)cc(C)c23)n1
55.4

====

Reported growth values for a set of compounds
# Test system: NCI-H322M lung
# protocol-notes: NCI-60 one-dose screen, 48 h (100 = growth as untreated, 0 = no growth, -100 = all killed)
# measurement-parameters: 10 µM unless noted
# Experimental: Growth inhibition of the NCI-H322M human Non-Small Cell Lung tumor cell line is measured as a screen for anti-cancer activity. Cells are grown in 96 well plates and exposed to the test compound for 48 hours. Compounds are tested at a single concentration, which is 10^-5 M for most compounds. The reported endpoint is percent growth (GI% or GIPRCNT), where numbers from 0 - 100% represent growth inhibition, and numbers from -100% - 0 represent cell death. […]
This is part of a sample that, as a whole, favours compounds with a hit. Of some 83,000 tested, about 20% had one in any assay.
Lab book: enter the figure in %, no units written.

Solved entries (count: 5):
compound	unit-name	growth
COc1ccc2c(c1)cn1c3ccc(O)cc3[nH]c(=O)c21	%	41.1
O=C1C(Br)=CC2C1C1C3CCC3C2(Br)C12OCCO2 (stereo unspecified)	%	54.5
CC(=O)Nc1nc(C)c(C(=O)N/N=C/c2cccs2)s1	%	111
CCCCCCCCCCCCCCCCC(=O)O.CCCCCCCCCCCCCCCCCC(=O)O.CCCCCCCCCCCCCCCCCC(=O)O.CCCCCCCCCCCCCCCCCC(=O)O.CCCCCCCCCCCCCCCCCC(=O)O.CO[CH-]OC12COC1CC(O)C1(C)C(O)C(OC(C)O)C3=C(C)C(OC(=O)C(O)C([NH-])c4ccccc4)CC(O)(C(OC(=O)c4ccccc4)C21)C3(C)C.[Cu+].[Zn].[Zn].[Zn].[Zn].[Zn] (stereo unspecified)	%	28.6
Ic1ccc(SSc2ccc(I)cc2)cc1	%	100

Moving on to the next compound.
For CC(=O)C(CO)C(=O)Nc1ccccc1 (stereo unspecified) , what is its reported growth?
85.9

====

# Tested on: NCI-H460 lung
# protocol-notes: NCI-60 one-dose screen, 48 h
# measurement-parameters: 10 µM unless noted
The panel holds about 83,000 compounds, 20% with a hit somewhere; the sample as a whole holds those more often. Active and inactive are the calls of the source. Rule for the calls: active = growth percent below 10; inactive = the rest.
In this exercise, the only acceptable responses are active, inactive

Illustrative cases are given below, each with its answer.
> print(dat)
                                   compound    target.desc  group.label
1  CCOc1ccc(Br)cc1/C=C(\C#N)c1ccc([N+](=O)[O-])cc1  NCI-H460 lung     inactive
2  CCOc1ccc(N(C)c2ccc(/C=C/C3=[N+](C)c4ccccc4C3(C)C)cc2)cc1  NCI-H460 lung       active
3  CCOC(=O)C1CCCN1C(=O)C1(NC(C)=O)CCCC1 (stereo unspecified)  NCI-H460 lung     inactive
4     CC(=O)Nc1nc(C)c(C(=O)N/N=C/c2cccs2)s1  NCI-H460 lung     inactive
5  COc1ccc2c(c1)/C(=C1/S/C(=N/c3nnc(C)s3)NC1=O)C(=O)N2Cc1ccc(Br)cc1  NCI-H460 lung       active

Next:
Entry CCOC(=O)NNc1[nH]c(-c2ccc(OC)cc2)cc1C#N : call = ?
inactive

====

# Test system: MDA-MB-231 breast
# protocol-notes: NCI-60 one-dose screen, 48 h
# measurement-parameters: 10 µM unless noted
Compounds without any hit were thinned out: in the full panel of roughly 83,000, 20% have a hit. The source made the active and inactive calls. Rule for the calls: active = growth percent below 10; inactive = the rest.
I would appreciate it if you answered using one of these outcomes: T = active, F = inactive

Previously resolved entries follow.
> print(dat)
                                   molecule  group.label
1  COC(=O)C(C(=O)OC)C(Br)C(Br)C(Br)c1ccccc1 (configuration not stated)            F
2  CCCCCCCCC/C(=N\NC(=O)c1ccncc1)c1ccc(O)c(O)c1O            F
3      CCCCCCC(C(=O)OCC)(C(=O)OCC)C1CCCCCC1            F

Each molecule tested received a call. Report the one for CC(=O)O.[In] .
F

State the result this test recorded for COc1ccc(C(=O)CN2C(=O)NC(c3ccccc3)(c3ccccc3)C2=O)cc1 .
F

Could you please tell me the result logged for CCCCS(=O)(=O)c1cc(Nc2ccc(O)c3c2C(=O)c2ccccc2C3=O)ccc1C in this assay?
F

====

# Test system: UACC-62 melanoma
# protocol-notes: NCI-60 one-dose screen, 48 h
# measurement-parameters: 10 µM unless noted
# Description: Growth inhibition of the UACC-62 human tumor cell line is measured as a screen for anti-cancer activity. Cells are grown in 96 well plates and exposed to the test compound for 48 hours. Compounds are tested at a single concentration, which is 10^-5 M for most compounds. The reported endpoint is percent growth (GI% or GIPRCNT), where numbers from 0 - 100% represent growth inhibition, and numbers from -100% - 0 represent cell death. For example, a value of 40 represents 60% growth inhibition. […]
Compounds without any hit were thinned out: in the full panel of roughly 83,000, 20% have a hit. Active and inactive are the calls of the source. Rule for the calls: active = growth percent below 10; inactive = the rest.
Pick one: YES = active, NO = inactive

Use these answered entries as a reference point.
> print(dat)
                                   compound  group.label
1  COC(=O)c1ccc2[nH]c(O)c(C(=Nc3ccc(N(C)C(=O)CN4CCN(C)CC4)cc3)c3cccc(OC)c3)c2c1           NO
2  Cc1ccc(S(=O)(=O)N/N=C2\CC3CCC2C3)cc1 (centres undefined)           NO
3  OCCN1CCCN(CCCN2c3ccccc3Sc3ccc(C(F)(F)F)cc32)CC1          YES
4           CC(=O)CC(=O)OC/C=C(/C)CCC=C(C)C           NO
5  CN1CCN(Cc2ccc(NC(=O)c3ccc(C#Cc4c(N)ncc5ccc(F)cc45)cc3)cc2C(F)(F)F)CC1          YES
6       NC(N)=Nc1ccc(/C=C2\C=Cc3ccccc32)cc1           NO

Short answer needed: outcome of this test for CC(=O)OCC1O[C@@H](OC(C)=O)[C@@H](NC(=O)NS(=O)(=O)c2ccccc2)C(OC(C)=O)[C@@H]1OC(C)=O (some centres undefined) ?
NO

For N#Cc1c2cccnc2c2nnc3cc(Cl)c(Cl)cc3n12 , which call appears in the assay record?
NO

For O=C(/C=C1\C(=O)N(Cc2ccc([N+](=O)[O-])cc2)c2ccccc21)c1ccc(OCCN2CCCC2)cc1 , which call appears in the assay record?
NO
